The measured values listed here are drawn from ChEMBL document CHEMBL3137667.

assay-context: human
Give measured Hepatotoxicity (benign tumour) for each item. Keep answers brief.
One number for each entry.

Answered cases to consult:
q: // Hepatotoxicity (benign tumour) lookup, key: CCN(CCCc1ccccc1)CCCc1ccccc1 [ALVERINE]
a: 0

q: If you can, please state the reported Hepatotoxicity (benign tumour) value of C[C@]12C=CC(=O)C=C1CC[C@@H]1[C@@H]2CC[C@@]2(C)[C@H]1CC[C@]2(C)O (stereo in doubt; form 1) [METHANDROSTENOLONE] .
a: 1

q: Using the record for CCN1C(=O)NC(c2ccccc2)C1=O (stereo unspecified) [ETHOTOIN] , report its Hepatotoxicity (benign tumour).
a: 0

q: Look up Hepatotoxicity (benign tumour) for this compound: CN1CCN(CC(=O)N2c3ccccc3C(=O)Nc3cccnc32)CC1 [PIRENZEPINE]
a: 0

Could you tell me Hepatotoxicity (benign tumour) for each of these compounds? They are listed below.
1. CC(C(=O)O)c1cccc(C(=O)c2ccccc2)c1 (stereo unspecified) [KETOPROFEN]
2. CC(C)OC(=O)C(C)(C)Oc1ccc(C(=O)c2ccc(Cl)cc2)cc1 [FENOFIBRATE]
3. Cc1cc(=O)n(-c2ccccc2)n1C [ANTIPYRINE]
4. CCN1CCCC1CNC(=O)c1cc(S(=O)(=O)CC)c(N)cc1OC (stereo unspecified) [AMISULPRIDE]

a:
0
0
0
0

----------
assay-context: human, serum
Task for the reader: assign each of the following molecules its reported Hepatotoxicity (moderate).
Numbers only.

Use these answered entries as a reference point.
q: I am curious: what Hepatotoxicity (moderate) value has been reported for CCCc1c2oc(C(=O)O)cc(=O)c2cc2c(=O)cc(C(=O)O)n(CC)c12 ?
a: 2

q: What does the record list as Hepatotoxicity (moderate) for Cc1ccc(-c2cc(C(F)(F)F)nn2-c2ccc(S(N)(=O)=O)cc2)cc1 ?
a: 3

q: What does the data say about its Hepatotoxicity (moderate)? Entry: O=C(O)c1cc(/N=N/c2ccc(S(=O)(=O)Nc3ccccn3)cc2)ccc1O
a: 44

q: Query: Hepatotoxicity (moderate); subject: CCO.CN1CCC[C@H]1c1cccnc1
a: 2

Continuing:
q: What Hepatotoxicity (moderate) value was documented for this molecule, CC(=N)N1CC[C@H](SC2=C(C(=O)O)N3C(=O)[C@H]([C@@H](C)O)[C@H]3C2)C1.O=C(O)CCNC(=O)c1ccccc1 ?
a: 60

----------
assay-context: human
*1 amine or outer side, *2 acyl side, *3 side chain or, on linkers, in order; H or OH if unused. Where a SMILES comes first, the peptide text is derived from it. Bridges are numbered along the chain shown (N, C = ends). [ ]: non-standard residue; d: D form. The star is where a group is joined. ξ: configuration not given here. X2 = N=C1NCCC([C@H](N[*:1])C(=O)[*:2])N1; ΔAla(Z-3-ureido) = NC(=O)N/C=C(\N)C(=O)O; ξβ3hOrn = NCCCC(N)CC(=O)*; Dap = NC[C@H](N)C(=O)O
Please respond with reported Hepatotoxicity (granulomatous hepatitis) for every item in the list.
Give bare numbers.

As a guide, the following entries are already answered.
q: Looking for the measured Hepatotoxicity (granulomatous hepatitis) of C=CC(N)CCC(=O)O (stereo not drawn) , can you help?
a: 0

q: Can you share its Hepatotoxicity (granulomatous hepatitis)? I mean this compound: C[C@@H]1NC(=O)[C@@H](N)CNC(=O)[C@H](C2CCNC(=N)N2)NC(=O)/C(=C/NC(N)=O)NC(=O)[C@H](CNC(=O)CC(N)CCCN)NC1=O.N=C1NCCC([C@@H]2NC(=O)/C(=C/NC(N)=O)NC(=O)[C@H](CNC(=O)CC(N)CCCN)NC(=O)[C@H](CO)NC(=O)[C@@H](N)CNC2=O)N1 (stereo partly drawn) [CAPREOMYCIN] (H-[Dap]S[Dap](ξβ3hOrn)[ΔAla(Z-3-ureido)][X2]; lactam 1-C)
a: 0

Next:
q: Sample COc1ccc(Cc2nccc3cc(OC)c(OC)cc23)cc1OC — what was its Hepatotoxicity (granulomatous hepatitis)?
a: 1
